Target: human Kv1.5 (Homo sapiens, UniProt P22460)
Sequence (P22460 whole entry): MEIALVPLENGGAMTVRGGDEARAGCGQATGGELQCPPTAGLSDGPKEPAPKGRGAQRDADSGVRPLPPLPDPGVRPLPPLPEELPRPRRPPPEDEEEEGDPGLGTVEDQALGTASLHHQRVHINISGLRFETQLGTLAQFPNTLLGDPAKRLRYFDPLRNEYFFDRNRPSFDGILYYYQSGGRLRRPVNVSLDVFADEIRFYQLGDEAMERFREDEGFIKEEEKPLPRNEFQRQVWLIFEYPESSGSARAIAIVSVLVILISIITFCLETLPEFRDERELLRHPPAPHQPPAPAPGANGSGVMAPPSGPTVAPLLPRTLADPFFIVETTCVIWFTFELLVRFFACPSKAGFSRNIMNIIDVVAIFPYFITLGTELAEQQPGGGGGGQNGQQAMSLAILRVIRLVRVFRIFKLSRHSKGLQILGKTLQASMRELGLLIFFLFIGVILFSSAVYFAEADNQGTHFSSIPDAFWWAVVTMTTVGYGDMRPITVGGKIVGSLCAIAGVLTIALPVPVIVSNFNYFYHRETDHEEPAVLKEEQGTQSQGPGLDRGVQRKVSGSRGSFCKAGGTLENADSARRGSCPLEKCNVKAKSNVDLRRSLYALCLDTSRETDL
Experiment: 86Rb efflux assay, inhibition of 86Rb efflux through Kv1.5 potassium channels expressed in CHO cells
Settings: Kv1.5 in CHO cells, 70 mM KCl, 1 minute
PARAMETER_MEASURED: pIC50
Give bare numbers, as −log10 of the molar value.

Worked cases, answers included:
1) CCCCc1ccc(S(=O)(=O)NC2c3cc(NC(=O)c4cccc(OC)c4)ccc3CCC2O)cc1 (stereo not shown) [Entry 19]: 5.54
2) CCc1ccc(S(=O)(=O)NC2c3cc(NC(=O)C#Cc4ccccc4)ccc3CCC2O)cc1 (stereo not shown) [Entry 28]: 5.23

Lab note: measured pIC50 of COc1cccc(C(=O)Nc2ccc3c(c2)C(NS(=O)(=O)Cc2ccccc2)C(O)CC3)c1 (stereo not shown) [Entry 70] was 4.54

----------
Molecular target: human Kv1.5 (Homo sapiens)
Assay: 86Rb efflux assay, inhibition of 86Rb efflux through Kv1.5 potassium channels expressed in CHO cells
Details: Kv1.5 in CHO cells, 70 mM KCl, 1 minute
pIC50: −log10 of the molar value.
Lab note: anything with pIC50 at or over 5 counts as rule met; the rest go in rule not met.

For this molecule, is measured pIC50 5 or higher? CCc1ccc(S(=O)(=O)NC2c3cc(NC(=O)c4cccc(OC)c4)ccc3CCC2O)cc1 (centres unmarked)
rule met

In plain terms: is recorded pIC50 at least 5 for CCc1ccc(S(=O)(=O)NC2c3cc(NC(=O)c4cccs4)ccc3CCC2O)cc1 (centres unmarked) ?
rule not met

----------
Target: Kv1.5 potassium channel (Homo sapiens)
Assay: Electrophysiological studies, whole cell patch clamp, inhibition of Kv1.5 potassium currents in Chinese hamster ovary cells
Conditions: CHO cells
PARAMETER_MEASURED: IC50
I'd appreciate it if you wrote the number followed by its unit.

Example entries begin here.
1) CCc1ccc(S(=O)(=O)NC2c3cc(NC(=O)C4Cc5ccccc5CN4CC)ccc3CCC2O)cc1 (stereo not shown) [Entry 24]: 600 nM
2) CCc1ccc(S(=O)(=O)NC2c3cc(NC(=O)c4cccc(OC)c4)ccc3CCC2O)cc1 (stereo not shown) [Entry 158]: 600 nM
3) CCc1ccc(S(=O)(=O)N[C@H]2c3cc(NCc4ccc(OC(F)(F)F)cc4)ccc3CC[C@@H]2O)cc1 (relative stereo) [Entry 60]: 500 nM

Per the record, CCc1ccc(S(=O)(=O)NC2c3cc(NC(=O)C#Cc4ccccc4)ccc3CCC2O)cc1 (stereo not shown) [Entry 28] has IC50 of 90 nM

----------
Molecular target: Kv1.5 potassium channel (Homo sapiens, UniProt P22460)
Sequence (P22460 whole entry): as above
Test: Electrophysiological studies, whole cell patch clamp, inhibition of Kv1.5 potassium currents in Chinese hamster ovary cells
Settings: CHO cells
PARAMETER_MEASURED: IC50

Example cases with answers are listed next.
1) CCc1ccc(S(=O)(=O)NC2c3cc(NC(=O)c4cccc(OC)c4)ccc3CCC2O)cc1 (centres unmarked) [Entry 1]: 250 nM
2) CCc1ccc(S(=O)(=O)NC2c3cc(NC(=O)c4ccccc4OC)ccc3CCC2O)cc1 (centres unmarked): 400 nM
3) CCc1ccc(S(=O)(=O)N(Cc2cccnc2)C2c3cc(NC(=O)c4cccc(OC)c4)ccc3CCC2O)cc1 (centres unmarked): 500 nM

Hello, I would appreciate it if you could give IC50 for each entry below.
1. COc1cccc(C(=O)Nc2ccc3c(c2)C(NS(=O)(=O)Cc2ccccc2)C(O)CC3)c1 (centres unmarked)
2. CCc1ccc(S(=O)(=O)NC2c3cc(N(Cc4cccnc4)C(=O)C4CC4)ccc3CCC2O)cc1 (centres unmarked) [Entry 123]
3. CCCCc1ccc(S(=O)(=O)NC2c3cc(NC(=O)c4cccc(OC)c4)ccc3CCC2O)cc1 (centres unmarked)

1. 2100 nM
2. 100 nM
3. 50 nM

Can you give me IC50 for all of these, one by one?
1. CCc1ccc(S(=O)(=O)NC2c3cc(NC(=O)C4CCCN4Cc4cccc(Cl)c4)ccc3CCC2O)cc1 (centres unmarked)
2. CCc1ccc(S(=O)(=O)NC2c3cc(N(Cc4cccnc4)C(=O)C4CC4)ccc3CCC2O)cc1 (centres unmarked) [Entry 162]

100 nM
200 nM
